Origin of measurements: paper PMC6278284

test system: L6 cells rat skeletal myoblasts; assay: Cytotoxicity against L6 cells (Alamar Blue); assay type: cell-based; settings: L6 rat skeletal myoblasts, 72 h; read-out: Cyt. L6 IC50
property: IC50
Report field: quantity (unit follows the number).

Sample O=C1C=CC(O)(CCN2CCOCC2)C=C1 [Compound 14c] — what was its IC50? 3.46 µM

Repeat with O=C1C=CC(O)(CCN2C(=O)COCC2=O)C=C1 [Compound 13g] 77.5 µM

Repeat with O=C1C=CC(O)(CCN2C(=O)C3CCCCC3C2O)C=C1 (stereo not shown) 12.6 µM

Repeat with O=C1C=CC(O)(CCN2C(=O)C=CC2=O)C=C1 [Compound 13b] 26.8 µM

Repeat with O=C1C=CC(O)(CCN2C(=O)C3CC=CCC3C2=O)C=C1 (stereo not shown) [Compound 13j] 8.04 µM

Repeat with O=C1C=CC(O)(CCN2C(=O)C(Cl)=C(Cl)C2=O)C=C1 [Compound 13e] 10.3 µM

Repeat with O=C1C=CC(O)(CCN2C(=O)C3=C(CCCC3)C2=O)C=C1 [Compound 13i] 3.52 µM

Repeat with O=C1C=CC(O)(CCN2Cc3ccccc3C2)C=C1 [Compound 14a] 2.81 µM

Repeat with O=C1C=CC(O)(CCN2C(=O)c3cccnc3C2=O)C=C1 [Compound 13f] 153 µM

Repeat with O=C1C=CC(O)(CCN2C(=O)C3CCCCC3C2=O)C=C1 (stereo not shown) [Compound 13h] 2.96 µM

Repeat with O=C1C=CC(O)(CCN2C(=O)c3cc(Cl)c(Cl)cc3C2=O)C=C1 [Compound 13d] 6.28 µM

Repeat with O=C1C=CC(O)(CCN2C(=O)c3ccccc3C2=O)C=C1 [Compound 13a] 5.08 µM

Repeat with O=C1C=CC(O)(CCN2C(=O)CCC2=O)C=C1 [Compound 13c] 9.9 µM
